Data provenance: PubChem BioAssay

Assay: inhibitors of fungal efflux pumps CDR1, CDR2, MDR1, pilot screen, validation compound set, multiplex, phenotypic (AID 588506);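 note: Nile Red retained in cells so higher fluorescence means more efflux inhibition; 0 = negative control wells and 1 = enniatin B 25 µM full block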
Conditions: S. cerevisiae pump-expressing triplex, Nile Red efflux flow cytometry; at 10 µM; the pumps come from Candida albicans
Activity calls are given as the source filed them.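 Rule for the calls: active = efflux inhibition above 0.42, the validation set average plus 4 SD; inconclusive = no clear call, values can overlap the other calls; inactive = the rest.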 Peptide text beside a SMILES is read from it. * marks the point of attachment. Boc = CC(C)(C)OC(=O)*
Possible outcomes: 1 (yes) for active, 0 (no) for inactive

>>> class_label("Cc1cc(OC(C(=O)O)c2ccccc2)c2c(C)c(Cc3ccccc3)c(=O)oc2c1 (stereo not given)")
"0 (no)"
>>> class_label("CC(C)[N+]1(C)[C@@H]2CC[C@H]1CC(OC(=O)C(CO)c1ccccc1)C2 (stereo not given in full)")
"0 (no)"
>>> class_label("COc1ccc2c(c1)c(CC(=O)O)c(C)n2C(=O)c1ccc(Cl)cc1")
"0 (no)"
>>> class_label("O=C(Nc1cccc(Cl)c1)N1CCN2C(=O)c3ccccc3C12c1ccccc1 (stereo not given)")
"0 (no)"
>>> class_label("COCCOC(=O)c1c(C)oc2ccc(OCc3cc(C(=O)OC)oc3C)cc12")
"0 (no)"
>>> class_label("CC(C)CC(NC(=O)C1CCCN1C(=O)OC(C)(C)C)C(=O)NCC(N)=O (stereo not drawn) (Boc-Pro-Leu-Gly-NH2; configuration not given here)")
"0 (no)"
>>> class_label("Oc1ccc(COCc2ccccc2)c2cccnc12")
"0 (no)"
>>> class_label("COc1cc(C2C(C(=O)c3ccc(C)o3)=C(O)C(=O)N2Cc2cccnc2)ccc1O (stereo not given)")
"0 (no)"
>>> class_label("COc1ccc(-c2cc3cc(OC)c(OC)cc3c(C)n2)cc1")
"0 (no)"
>>> class_label("CCOc1ccccc1Oc1coc2cc(OCC(=O)O)ccc2c1=O")
"0 (no)"
>>> class_label("COc1ccccc1-c1c(C(F)(F)F)oc2cc(OC(=O)c3ccc([N+](=O)[O-])cc3)ccc2c1=O")
"0 (no)"
>>> class_label("Nc1cccc(C(=O)O)c1")
"0 (no)"
>>> class_label("CCOc1ccc(CC2c3cc(OCC)c(OCC)cc3CCN2C(=O)CN2CCN(C)CC2)cc1OCC (stereo not given)")
"0 (no)"
>>> class_label("COc1ccc2nc(NC(=O)Nc3ccccc3)sc2c1")
"0 (no)"
>>> class_label("C/C(=N\\N=C1\\NC(=O)C(CC(=O)Nc2ccc(Cl)cc2)S1)c1ccco1 (stereo not given)")
"0 (no)"
>>> class_label("O=C(O)CCn1c(=S)n(CCC(=O)O)c2ccccc21")
"0 (no)"
>>> class_label("O=C(O)CC(O)C(=O)O (stereo not given)")
"0 (no)"
>>> class_label("Cn1c(=O)[nH]c(=O)c2c1nc(Br)n2CCCO")
"0 (no)"
>>> class_label("COc1cccc(N2CC(O)=C(c3nc4ccccc4c(=O)[nH]3)C2=N)c1")
"0 (no)"
>>> class_label("Cc1ccc(C(=O)NC(=S)NCCCN2CCOCC2)cc1")
"0 (no)"
>>> class_label("Nc1ccc(S(=O)(=O)c2ccc(N)cc2)cc1")
"0 (no)"
>>> class_label("CC(=O)c1cn(C)c(=O)[nH]c1=O")
"0 (no)"
>>> class_label("COc1cccc(OC)c1C(=O)Nc1nc2ccc([N+](=O)[O-])cc2s1")
"0 (no)"
>>> class_label("CN(C)CCOc1ccc(Cl)cc1C(C)(C)C")
"0 (no)"
>>> class_label("COc1ccc(NC(=S)NCCc2c[nH]c3ccccc23)cc1")
"0 (no)"
>>> class_label("CCCC1O[C@@H]2C[C@H]3[C@@H]4CCC5=CC(=O)C=C[C@]5(C)[C@H]4[C@@H](O)C[C@]3(C)[C@]2(C(=O)CO)O1 (stereo not given in full)")
"0 (no)"
>>> class_label("O=C(O)CCCCCCCC(=O)O")
"0 (no)"
>>> class_label("Cc1ccc2c(c1)c1c3n2CCCNC3CCC1 (stereo not given)")
"0 (no)"
>>> class_label("COc1cc(OC)cc(C(=O)N[C@@H](CCSC)c2nc3ccccc3[nH]2)c1")
"0 (no)"
>>> class_label("COc1ccc(CCNC(=O)CC(c2ccccc2)c2cccc(C)c2O)cc1OC (stereo not given)")
"0 (no)"
>>> class_label("CCc1cn([C@H]2C[C@H](O)[C@@H](CO)O2)c(=O)[nH]c1=O")
"0 (no)"
>>> class_label("COc1ccc(-c2coc3cc(OC(=O)N4CCOCC4)ccc3c2=O)cc1")
"0 (no)"
>>> class_label("CCC(=O)c1ccc(O)cc1")
"0 (no)"
>>> class_label("C[C@]12CC[C@@H]3c4ccc(OS(=O)(=O)O)cc4CC[C@H]3[C@@H]1CCC2=O")
"0 (no)"
>>> class_label("CC(COc1ccccc1)N(CCCl)Cc1ccccc1 (stereo not given)")
"0 (no)"
>>> class_label("CCC(C)NCCOCCOc1ccc(Cl)c2ccccc12 (stereo not given)")
"0 (no)"
>>> class_label("Cc1oc2cc(O)ccc2c(=O)c1Oc1ccccc1Br")
"0 (no)"
>>> class_label("O=c1c2ccccc2nnn1Cc1cccc2ccccc12")
"0 (no)"
>>> class_label("CC(=O)OCC(=O)[C@H]1CC[C@H]2[C@@H]3CC=C4C[C@@H](O)CC[C@]4(C)[C@H]3CC[C@]12C")
"0 (no)"
>>> class_label("CC(C)c1ccc2[nH]c3c(c2c1)CCCC3=O")
"0 (no)"
>>> class_label("Cn1c(=O)oc2cc(S(=O)(=O)N3CCc4ccccc4C3)ccc21")
"0 (no)"
>>> class_label("COc1ccc(C(=O)[C@H]2[C@H]3C(=O)N(c4ccccc4)C(=O)[C@H]3C3C=CC=NN32)cc1 (stereo not given in full)")
"0 (no)"
>>> class_label("COc1ccccc1-c1ccc(/C=C2/C=C(CC(C)C)OC2=O)o1")
"1 (yes)"
>>> class_label("CCCCOc1ccc(OCCCN2CCOCC2)cc1")
"0 (no)"
>>> class_label("O=C(/C=C/c1ccco1)N1CCN(c2ccccc2)CC1")
"0 (no)"
